Please respond with reported growth for every item in the list.
Test system: MDA-MB-435 melanoma
Assay: NCI-60 one-dose screen, 48 h (100 = growth as untreated, 0 = no growth, -100 = all killed)
Conditions: 10 µM unless noted
Experimental: Growth inhibition of the MDA-MB-435 human Melanoma tumor cell line is measured as a screen for anti-cancer activity. Cells are grown in 96 well plates and exposed to the test compound for 48 hours. Compounds are tested at a single concentration, which is 10^-5 M for most compounds. The reported endpoint is percent growth (GI% or GIPRCNT), where numbers from 0 - 100% represent growth inhibition, and numbers from -100% - 0 represent cell death. […]
About 83,000 compounds went through this panel and 20% of them were active in at least one assay; those are over-represented in the sample as a whole.
Numbers only, in %.

C=CC1=C[C@@H]2[C@@H]3O[C@]4(CC[C@H](O4)[C@@H](C)C[C@@H](O)C3=O)C[C@H](O)C3=NCC[C@@]32CC1 :: -92.9
O=C(c1cccc(O)c1O)c1cn(Cc2ccc(F)cc2)c2cccc(O)c12 :: 14.2

I need growth for every entry listed below, if you could help.
1. O=C(Nc1ccc([As]=[As]c2ccc(NC(=O)c3ccccc3)cc2)cc1)c1ccccc1 (stereo unspecified)
2. COC(=O)[C@@H](C)C[C@H](Cc1ccccc1)NC(=O)c1csc(CC[C@H](C(C)C)N(C)C(=O)[C@@H](NC(=O)[C@H]2CCCCN2C)C(C)C)n1
3. COc1ccc2c(c1)c(-c1nc(-c3cn(C)c4ncccc34)cs1)cn2CCCCN1CCCCC1
4. Nc1ncnc2n[nH]nc12
5. CCOC(=O)[C@@H](C)C[C@H](Cc1ccccc1)NC(=O)c1csc([C@@H](C[C@H](C(C)C)N(C)C(=O)[C@H](CCC(C)C)NC(=O)[C@H]2CCCCN2C)OC(C)=O)n1
6. Fc1ccc2c(c1)c(-c1nc(-c3c[nH]c4ncccc34)cs1)cn2CCN1CCOCC1
7. CNC(=O)Oc1cccc(C(F)(F)F)c1

1: -77.2; 2: -48.6; 3: -88.9; 4: 75.1; 5: -1.75; 6: 21.5; 7: 126

* * *

Tested on: NCI/ADR-RES ovarian
Assay: NCI-60 one-dose screen, 48 h (100 = growth as untreated, 0 = no growth, -100 = all killed)
Settings: 10 µM unless noted
The panel holds about 83,000 compounds, 20% with a hit somewhere; the sample as a whole holds those more often. Calls of active or inactive are those of the source. Rule for the calls: active = growth percent below 10; inactive = the rest.
value.type: growth

Reference set (3 entries):
O=C1CNC(c2ccccc2)c2cc(Cl)ccc2N1 (stereo not given) :: 100% (inactive)
COc1ccc(S(=O)(=O)Nc2c(/C=C\c3cc(OC)c(OC)c(OC)c3)ccc(OC)c2O)cc1OC :: 2.42% (active)
COC(=O)C12CC(NC(=O)c3csc([C@@H](C[C@H](C(C)C)N(C)C(=O)[C@@H](NC(=O)[C@H]4CCCCN4C)C(C)C)OC(C)=O)n3)(C1)C2 :: -4.67% (active)

Here are 6 compounds. What values of growth were reported for them?
1. CCCCN1CCCC[C@@H]1C(=O)N[C@H](C(=O)N(C)[C@H](CCc1nc(C(=O)N[C@@H](Cc2ccccc2)C[C@H](C)C(=O)OC)cs1)C(C)C)[C@@H](C)CC
2. O=C(CN1CCN(C(=O)c2ccco2)CC1)Nc1ccc(Cl)cc1C(=O)c1ccccc1Cl
3. CCCCCCCCCCCCCC[P+](CCCCCC)(CCCCCC)CCCCCC
4. ClCCN(CCCl)c1ccc(/C=N/Nc2ncnc3nc[nH]c23)cc1
5. N#Cc1c(Br)n(C2OC(CO)C(O)C2O)c2ncnc(N)c12 (stereo not given)
6. Clc1cccc(Cl)c1Cl

["65.7% (inactive)", "83.4% (inactive)", "-10.5% (active)", "98.4% (inactive)", "52.9% (inactive)", "105% (inactive)"]
